subject_of_test: mutant G2019S LRRK2 (Homo sapiens (Human), UniProt Q5S007, G2019S)
Sequence (Q5S007 970-2527 G2019S): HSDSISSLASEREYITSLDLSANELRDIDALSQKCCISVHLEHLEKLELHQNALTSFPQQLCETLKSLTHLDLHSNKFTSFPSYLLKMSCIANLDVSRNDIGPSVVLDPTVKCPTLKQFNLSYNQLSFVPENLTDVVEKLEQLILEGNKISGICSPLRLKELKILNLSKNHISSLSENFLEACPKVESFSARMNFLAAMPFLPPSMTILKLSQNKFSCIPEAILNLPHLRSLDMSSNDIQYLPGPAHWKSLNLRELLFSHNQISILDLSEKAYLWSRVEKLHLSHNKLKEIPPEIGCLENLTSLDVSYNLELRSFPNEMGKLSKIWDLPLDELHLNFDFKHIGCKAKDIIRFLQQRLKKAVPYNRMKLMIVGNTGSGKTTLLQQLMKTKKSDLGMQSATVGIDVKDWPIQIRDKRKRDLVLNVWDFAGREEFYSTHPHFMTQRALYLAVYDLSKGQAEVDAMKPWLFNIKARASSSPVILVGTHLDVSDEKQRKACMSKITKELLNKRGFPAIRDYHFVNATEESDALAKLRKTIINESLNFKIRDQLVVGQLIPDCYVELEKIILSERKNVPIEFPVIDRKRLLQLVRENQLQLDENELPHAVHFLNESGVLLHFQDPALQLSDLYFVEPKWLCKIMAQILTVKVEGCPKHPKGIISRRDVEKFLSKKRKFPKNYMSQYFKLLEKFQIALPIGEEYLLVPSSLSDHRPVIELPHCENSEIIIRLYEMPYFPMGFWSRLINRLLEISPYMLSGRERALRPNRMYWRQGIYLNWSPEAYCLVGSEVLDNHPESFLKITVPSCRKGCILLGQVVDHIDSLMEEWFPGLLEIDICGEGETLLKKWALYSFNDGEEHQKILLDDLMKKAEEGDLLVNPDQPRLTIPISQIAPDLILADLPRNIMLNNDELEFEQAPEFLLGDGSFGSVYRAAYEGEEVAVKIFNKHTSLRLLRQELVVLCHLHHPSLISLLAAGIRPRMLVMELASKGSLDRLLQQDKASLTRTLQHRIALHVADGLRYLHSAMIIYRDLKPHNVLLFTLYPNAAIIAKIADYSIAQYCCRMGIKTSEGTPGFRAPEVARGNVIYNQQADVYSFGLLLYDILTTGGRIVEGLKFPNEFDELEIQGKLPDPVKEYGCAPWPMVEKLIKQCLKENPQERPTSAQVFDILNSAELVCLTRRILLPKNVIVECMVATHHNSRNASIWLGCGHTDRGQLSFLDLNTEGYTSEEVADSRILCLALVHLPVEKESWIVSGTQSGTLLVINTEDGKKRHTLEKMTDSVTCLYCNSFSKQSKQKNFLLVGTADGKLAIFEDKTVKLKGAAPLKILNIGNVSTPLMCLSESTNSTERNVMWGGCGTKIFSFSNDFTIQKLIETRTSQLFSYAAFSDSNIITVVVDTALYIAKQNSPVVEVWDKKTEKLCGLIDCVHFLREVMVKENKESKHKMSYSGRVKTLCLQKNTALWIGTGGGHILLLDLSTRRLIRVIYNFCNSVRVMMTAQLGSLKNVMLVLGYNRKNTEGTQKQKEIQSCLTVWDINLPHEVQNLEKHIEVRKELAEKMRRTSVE
test_description: LRRK2 Lantha Screen kinase assay, mutant enzyme
condition_info: geometric mean of 2-5 determinations unless otherwise indicated (a: >=6 determinations; b: single determination)
assay_readout: IC50 (nM)

Field: example entries. Status: answers known.
>  <compound>
COCC1CN(c2ncnc3[nH]cc(-c4cccc(C#N)c4)c23)CCO1 (single isomer, unassigned) [Example 74]

>  <subject_of_test>
mutant G2019S LRRK2 (Homo sapiens (Human), UniProt Q5S007, G2019S)

>  <meas_value>
100

$$$$
>  <compound>
COc1cc(F)cc(-c2c[nH]c3ncnc(N4CCCC(O)C4)c23)c1 (stereo not shown)

>  <subject_of_test>
mutant G2019S LRRK2 (Homo sapiens (Human), UniProt Q5S007, G2019S)

>  <meas_value>
38

$$$$

a = N#Cc1cccc(-c2c[nH]c3ncnc(N4CCO[C@H]5CCC[C@H]54)c23)c1 (relative stereo)
b = c1ccc2c(-c3c[nH]c4ncnc(N5CCOCC5)c34)cncc2c1
c = COc1ccccc1-c1c[nH]c2ncnc(N3CCC(F)CC3)c12
d = COCC1CN(c2ncnc3[nH]cc(-c4cccc(C#N)c4)c23)CCO1 (stereo not shown) [Example 30]
Prompt line: Please put the entries in order of rising IC50. // ordering of labels required in reply
Response line: b, c, d, a
